# Tested on: Escherichia coli TOP10;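 note: peptides expressed intracellularly from a pBAD plasmid library in pooled LB shake-flask culture, induced with 0.3% L-arabinose, DNA abundance read by NGS, three biological replicates, DESeq2 with apeglm shrinkage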
# METHOD SUMMARY: shrunken log2 fold change of peptide-encoding DNA abundance (4.5 h post-induction vs induction); higher = less antimicrobial activity (less host growth inhibition)
# ASSAY SETUP: time post-induction: 4.5 h; library: site-saturation at positions 5, 18, 19, 20
Outcome label depends on shrunken log2 fold change relative to -0.06: at/above gives Met, below gives Not met.

Consider the worked cases shown below.
RRIRRRPPRLPRPRPRPCNNPRP : Not met
RRIRPRPPRLPRPRPRPNCDPRP : Not met
RRIRGRPPRLPRPRPRPYCWPRP : Met

Prompt: Form field: shrunken log2 fold change at least -0.06? Entry: RRIRQRPPRLPRPRPRPIHPPRP
Response: Not met

Prompt: State whether the measured shrunken log2 fold change reaches -0.06, counting equality as reaching it, for RRIRCRPPRLPRPRPRPPQRPRP
Response: Met

Prompt: Please tell me: is the sequence RRIRLRPPRLPRPRPRPNHAPRP at or over -0.06 in terms of shrunken log2 fold change?
Response: Met

Prompt: // inclusive: shrunken log2 fold change at least -0.06? input: RRIRPRPPRLPRPRPRPAIPPRP
Response: Met

Prompt: Determine whether measured shrunken log2 fold change meets or exceeds -0.06 for RRIRARPPRLPRPRPRPSLNPRP
Response: Met

Prompt: Is the recorded value of shrunken log2 fold change equal to or greater than -0.06 for this sequence? RRIRWRPPRLPRPRPRPLMDPRP
Response: Met

Prompt: Say whether RRIRYRPPRLPRPRPRPGQQPRP shows shrunken log2 fold change of -0.06 or more.
Response: Met

Prompt: Exam item: decide whether the reported shrunken log2 fold change for RRIRERPPRLPRPRPRPGNQPRP is at least -0.06.
Response: Met

Prompt: Item RRIRSRPPRLPRPRPRPCLIPRP with shrunken log2 fold change of -0.06 or above?
Response: Not met

Prompt: Please tell me: is the sequence RRIRYRPPRLPRPRPRPNVTPRP at or over -0.06 in terms of shrunken log2 fold change?
Response: Not met

Prompt: Hi team, for RRIRIRPPRLPRPRPRPHNHPRP , is the recorded shrunken log2 fold change at or above -0.06?
Response: Not met

Prompt: Kindly determine if shrunken log2 fold change recorded for RRIRSRPPRLPRPRPRPPKIPRP is above or exactly -0.06.
Response: Met
